Origin of the recorded values: patent US6620593B1

assay-target: human P450 2E1 (Homo sapiens, UniProt P05181)
Sequence (P05181 whole entry): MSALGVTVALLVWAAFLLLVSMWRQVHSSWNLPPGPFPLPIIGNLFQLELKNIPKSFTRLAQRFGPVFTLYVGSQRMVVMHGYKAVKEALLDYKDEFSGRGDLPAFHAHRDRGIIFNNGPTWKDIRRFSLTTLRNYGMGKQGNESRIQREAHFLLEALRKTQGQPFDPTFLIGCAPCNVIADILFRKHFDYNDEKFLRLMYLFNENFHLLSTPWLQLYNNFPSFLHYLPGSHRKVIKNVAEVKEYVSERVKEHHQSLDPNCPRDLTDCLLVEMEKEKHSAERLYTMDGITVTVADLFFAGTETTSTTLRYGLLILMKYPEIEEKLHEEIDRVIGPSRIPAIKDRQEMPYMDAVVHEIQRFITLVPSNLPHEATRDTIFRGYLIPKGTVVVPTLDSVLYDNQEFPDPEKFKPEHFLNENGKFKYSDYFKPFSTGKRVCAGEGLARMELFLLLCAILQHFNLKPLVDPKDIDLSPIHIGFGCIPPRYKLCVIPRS
procedure-summary: Metabolism (hydroxylation) of substrates using transformed yeast cells or microsomal fractions expressing human P450 2E1
recorded-conditions: microsomes

| compound | assay-target | Hydroxylation activity, human P450 2E1 |
| --- | --- | --- |
| CC(=O)Nc1ccccc1 [Acetanilide] | human P450 2E1 (Homo sapiens, UniProt P05181) | + + |
| O=c1ccc2ccccc2o1 [Coumarin] | human P450 2E1 (Homo sapiens, UniProt P05181) | − |
| CCCCNC(=O)NS(=O)(=O)c1ccc(C)cc1 [Tolbutamide] | human P450 2E1 (Homo sapiens, UniProt P05181) | − |
| CCOc1ccc2ccc(=O)oc2c1 [7-Ethoxycoumarin] | human P450 2E1 (Homo sapiens, UniProt P05181) | + + |
| N=C(N)N1CCc2ccccc2C1 [Debrisoquine] | human P450 2E1 (Homo sapiens, UniProt P05181) | − |

====

Test system: human P450 3A4
procedure-summary: Metabolism (hydroxylation) of substrates using transformed yeast cells or microsomal fractions expressing human P450 3A4
recorded-conditions: microsomes

| molecule | Hydroxylation activity, human P450 3A4 |
| --- | --- |
| CC(=O)Nc1ccccc1 [Acetanilide] | + |
| N=C(N)N1CCc2ccccc2C1 | − |
| CCOc1ccc2ccc(=O)oc2c1 | + |
| CC[C@@]1(c2ccccc2)NC(=O)N(C)C1=O | − |
| O=c1ccc2ccccc2o1 | − |

====

System: human P450 2A6
procedure-summary: Metabolism (hydroxylation) of substrates using transformed yeast cells or microsomal fractions expressing human P450 2A6
recorded-conditions: microsomes
metric: Hydroxylation activity, human P450 2A6

| molecule | result |
| --- | --- |
| CCOc1ccc2ccc(=O)oc2c1 | + + |
| N=C(N)N1CCc2ccccc2C1 | − |
| O=c1ccc2ccccc2o1 | + + + |
| CC[C@@]1(c2ccccc2)NC(=O)N(C)C1=O | − |
| CCCCNC(=O)NS(=O)(=O)c1ccc(C)cc1 [Tolbutamide] | − |
| CC(=O)Nc1ccccc1 [Acetanilide] | + + |

====

assay-target: human P450 1A2 (Homo sapiens)
Sequence (P05177 whole entry): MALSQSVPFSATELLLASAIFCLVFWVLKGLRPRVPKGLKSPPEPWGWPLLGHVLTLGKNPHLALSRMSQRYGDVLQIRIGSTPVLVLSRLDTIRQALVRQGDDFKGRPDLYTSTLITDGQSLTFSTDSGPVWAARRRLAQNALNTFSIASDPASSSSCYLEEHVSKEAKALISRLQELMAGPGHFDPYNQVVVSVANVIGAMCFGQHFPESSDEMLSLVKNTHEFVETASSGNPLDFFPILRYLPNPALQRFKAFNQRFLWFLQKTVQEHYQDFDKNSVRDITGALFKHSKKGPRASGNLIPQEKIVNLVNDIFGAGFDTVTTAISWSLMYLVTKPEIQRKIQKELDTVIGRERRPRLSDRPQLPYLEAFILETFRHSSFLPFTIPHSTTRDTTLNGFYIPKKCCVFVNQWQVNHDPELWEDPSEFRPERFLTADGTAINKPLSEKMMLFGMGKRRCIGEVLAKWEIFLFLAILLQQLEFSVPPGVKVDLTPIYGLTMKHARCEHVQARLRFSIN
procedure-summary: Metabolism (hydroxylation) of substrates using transformed yeast cells or their microsomal fractions expressing human P450 1A2 and yeast NADPH-P450 reductase
recorded-conditions: microsomes

| molecule | Hydroxylation activity, human P450 1A2 |
| --- | --- |
| CCOc1ccc2ccc(=O)oc2c1 [7-Ethoxycoumarin] | + + |
| O=c1ccc2ccccc2o1 [Coumarin] | − |
| CC(=O)Nc1ccccc1 [Acetanilide] | + + + |
| N=C(N)N1CCc2ccccc2C1 [Debrisoquine] | − |
| CCCCNC(=O)NS(=O)(=O)c1ccc(C)cc1 [Tolbutamide] | − |

====

assay-target: human P450 1A1 (Homo sapiens, UniProt P04798)
Sequence (P04798 1-512): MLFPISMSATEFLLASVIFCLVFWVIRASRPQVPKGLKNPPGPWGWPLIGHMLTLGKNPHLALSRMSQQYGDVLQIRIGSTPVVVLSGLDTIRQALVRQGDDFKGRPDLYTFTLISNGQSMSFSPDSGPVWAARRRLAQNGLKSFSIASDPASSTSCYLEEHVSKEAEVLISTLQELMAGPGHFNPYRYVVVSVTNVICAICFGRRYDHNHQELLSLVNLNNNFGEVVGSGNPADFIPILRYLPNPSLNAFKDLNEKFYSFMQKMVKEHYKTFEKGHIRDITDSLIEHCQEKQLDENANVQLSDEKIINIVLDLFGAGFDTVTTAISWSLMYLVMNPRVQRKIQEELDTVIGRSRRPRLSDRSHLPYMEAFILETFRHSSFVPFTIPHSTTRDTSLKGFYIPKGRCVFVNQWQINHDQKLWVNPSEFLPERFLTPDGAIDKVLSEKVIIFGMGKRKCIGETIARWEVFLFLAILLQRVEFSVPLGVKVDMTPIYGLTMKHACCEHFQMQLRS
recorded-conditions: microsomes
metric: Hydroxylation activity, human P450 1A1

| molecule | result |
| --- | --- |
| CC(=O)Nc1ccccc1 [Acetanilide] | + + |
| N=C(N)N1CCc2ccccc2C1 | + + |
| O=c1ccc2ccccc2o1 | − |
| CCCCNC(=O)NS(=O)(=O)c1ccc(C)cc1 [Tolbutamide] | − |
| CCOc1ccc2ccc(=O)oc2c1 | + + + |
